# subject of test: Tb-labeled inactive PDGFRβ (Homo sapiens (Human), UniProt P09619)
# Sequence (P09619 33-1106): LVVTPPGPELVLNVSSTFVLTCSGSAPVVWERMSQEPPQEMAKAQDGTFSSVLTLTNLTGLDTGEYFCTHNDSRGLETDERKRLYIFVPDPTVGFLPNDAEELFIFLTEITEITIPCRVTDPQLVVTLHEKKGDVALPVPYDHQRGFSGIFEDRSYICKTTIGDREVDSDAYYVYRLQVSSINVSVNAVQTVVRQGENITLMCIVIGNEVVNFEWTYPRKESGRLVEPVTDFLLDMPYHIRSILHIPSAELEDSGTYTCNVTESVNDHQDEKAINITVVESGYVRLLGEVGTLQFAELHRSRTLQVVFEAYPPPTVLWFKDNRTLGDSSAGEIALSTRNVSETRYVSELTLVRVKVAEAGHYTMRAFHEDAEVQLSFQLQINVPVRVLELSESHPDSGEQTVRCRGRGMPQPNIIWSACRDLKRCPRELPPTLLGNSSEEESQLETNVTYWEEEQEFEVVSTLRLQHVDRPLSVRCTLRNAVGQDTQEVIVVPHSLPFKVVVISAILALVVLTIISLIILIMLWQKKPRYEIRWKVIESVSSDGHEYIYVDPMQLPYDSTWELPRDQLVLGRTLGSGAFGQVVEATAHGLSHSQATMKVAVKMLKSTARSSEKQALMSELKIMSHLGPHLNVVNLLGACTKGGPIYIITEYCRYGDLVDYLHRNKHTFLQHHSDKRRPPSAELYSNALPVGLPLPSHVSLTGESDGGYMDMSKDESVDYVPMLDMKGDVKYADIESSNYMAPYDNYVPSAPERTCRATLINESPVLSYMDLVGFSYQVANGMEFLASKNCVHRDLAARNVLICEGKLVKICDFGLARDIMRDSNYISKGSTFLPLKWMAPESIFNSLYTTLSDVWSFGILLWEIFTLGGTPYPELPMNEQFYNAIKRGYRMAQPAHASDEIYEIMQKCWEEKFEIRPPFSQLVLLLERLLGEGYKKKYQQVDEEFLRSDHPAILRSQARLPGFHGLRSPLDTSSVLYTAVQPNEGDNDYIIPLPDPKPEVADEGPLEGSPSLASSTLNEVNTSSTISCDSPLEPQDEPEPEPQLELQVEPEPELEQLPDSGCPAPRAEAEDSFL
# procedure text: PDGFRβ LanthaScreen Assay
# run conditions: read-out: PDGFR Lantha IC50
Just a reminder that ties go to not met: only IC50 strictly below 3 nM counts as met.

{"columns": ["compound", "class label"],
 "data": [
  ["Cc1ncc(C(=O)NCC2CCCN2C)cc1NC(=O)c1cnn2cc(-c3cnn4c3OCCC4)sc12 (stereo not shown)", "not met"],
  ["Cc1ncc(NC(=O)CN2CC(C)(C)C2)cc1NC(=O)c1cnn2cc(-c3ccoc3)sc12", "met"],
  ["Cc1ncc(NC(=O)NCCN2CCCC2(C)C)cc1NC(=O)c1cnn2cc(-c3cnn(C)c3)sc12", "not met"],
  ["Cc1ncc(NC(=O)CN(C)C2CCOCC2)cc1NC(=O)c1cnn2cc(-c3cnn(C4CCC4)c3)sc12", "not met"],
  ["COC1(C)CN(CC(=O)Nc2cnc(C)c(NC(=O)c3cnn4cc(-c5cn(C)nc5C)sc34)c2)C1", "not met"],
  ["Cc1ncc(NC(=O)CN(C)C2CCOCC2)cc1NC(=O)c1cnn2cc(-c3cnn(C4CC4)c3)sc12", "not met"],
  ["Cc1ncc(NC(=O)CN2CCC[C@@H]2C)cc1NC(=O)c1cnn2cc(-c3cnn4c3OCCC4)sc12", "met"]
]}

====

# subject of test: PDGFRβ (Rattus norvegicus (Rat), UniProt Q05030)
# Sequence (Q05030 32-1097): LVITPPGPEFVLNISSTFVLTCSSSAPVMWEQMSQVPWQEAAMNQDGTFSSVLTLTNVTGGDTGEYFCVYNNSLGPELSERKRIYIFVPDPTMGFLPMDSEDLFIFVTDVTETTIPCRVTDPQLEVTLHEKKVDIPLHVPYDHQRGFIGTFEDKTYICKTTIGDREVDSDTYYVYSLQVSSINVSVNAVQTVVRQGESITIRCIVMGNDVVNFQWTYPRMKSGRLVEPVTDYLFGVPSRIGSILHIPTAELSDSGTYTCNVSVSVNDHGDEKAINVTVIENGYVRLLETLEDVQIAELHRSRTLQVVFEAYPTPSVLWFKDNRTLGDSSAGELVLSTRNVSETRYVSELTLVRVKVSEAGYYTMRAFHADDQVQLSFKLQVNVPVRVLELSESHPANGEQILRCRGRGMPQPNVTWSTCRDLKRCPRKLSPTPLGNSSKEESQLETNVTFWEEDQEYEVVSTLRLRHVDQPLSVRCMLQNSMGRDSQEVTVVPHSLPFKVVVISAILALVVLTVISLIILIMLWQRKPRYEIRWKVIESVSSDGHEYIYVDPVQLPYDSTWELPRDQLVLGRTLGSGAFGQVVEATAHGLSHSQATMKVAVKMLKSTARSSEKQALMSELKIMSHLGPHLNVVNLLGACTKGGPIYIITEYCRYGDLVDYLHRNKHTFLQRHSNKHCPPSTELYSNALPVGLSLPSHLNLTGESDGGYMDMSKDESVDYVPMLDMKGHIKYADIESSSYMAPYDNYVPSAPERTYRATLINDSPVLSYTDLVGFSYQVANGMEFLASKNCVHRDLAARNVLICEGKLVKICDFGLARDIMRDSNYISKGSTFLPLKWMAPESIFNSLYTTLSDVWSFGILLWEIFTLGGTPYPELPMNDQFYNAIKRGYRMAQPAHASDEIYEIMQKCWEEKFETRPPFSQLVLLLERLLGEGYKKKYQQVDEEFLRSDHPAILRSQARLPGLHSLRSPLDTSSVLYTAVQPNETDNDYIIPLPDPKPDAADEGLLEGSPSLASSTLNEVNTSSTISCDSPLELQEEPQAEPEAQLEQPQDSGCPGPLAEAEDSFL
# procedure text: PDGFRβ Cellular Assay (PDGFRb P-Y751 HTRF in A10 cells stimulated with PDGF-BB)
# Assay type: cell-based
# run conditions: read-out: PDGFR Cellular IC50
pIC50: −log10 of the molar value.
pIC50 for assorted molecules

{"columns": ["molecule", "subject of test", "pIC50"],
 "data": [
  ["Cc1ncc(NC(=O)CN2CCC[C@@H]2C)cc1NC(=O)c1cnn2cc(-c3cnn4c3COCC4)sc12", "PDGFRβ (Rattus norvegicus (Rat), UniProt Q05030)", 8.28],
  ["Cc1ncc(NC(=O)CN2CCCC2(C)C)cc1NC(=O)c1cnn2cc(-c3cn(C)nc3C)sc12", "PDGFRβ (Rattus norvegicus (Rat), UniProt Q05030)", 8.89],
  ["Cc1ncc(NC(=O)CN2CCc3scnc3C2)cc1NC(=O)c1cnn2cc(-c3cnn(C)c3)sc12", "PDGFRβ (Rattus norvegicus (Rat), UniProt Q05030)", 7.36],
  ["Cc1ncc(NC(=O)CN2CC3CC(C2)O3)cc1NC(=O)c1cnn2cc(-c3cnn(C)c3)sc12", "PDGFRβ (Rattus norvegicus (Rat), UniProt Q05030)", 7.12],
  ["Cc1ncc(NC(=O)CN2CC(C)(C)C2)cc1NC(=O)c1cnn2cc(-c3cnc4n3CCOC4)sc12", "PDGFRβ (Rattus norvegicus (Rat), UniProt Q05030)", 7.38],
  ["COCCn1cc(-c2cn3ncc(C(=O)Nc4cc(NC(=O)C[C@@H]5CCCN5C(C)C)cnc4C)c3s2)cn1", "PDGFRβ (Rattus norvegicus (Rat), UniProt Q05030)", 7.17],
  ["Cc1ncc(C(=O)NCCN2CC3CCC2CC3)cc1NC(=O)c1cnn2cc(-c3cccnc3)sc12", "PDGFRβ (Rattus norvegicus (Rat), UniProt Q05030)", 7.44],
  ["Cc1ncc(NC(=O)CN2CC(C)(C)C2)cc1NC(=O)c1cnn2cc(-c3cnn(CC#N)c3)sc12", "PDGFRβ (Rattus norvegicus (Rat), UniProt Q05030)", 7.44],
  ["COCCn1cc(-c2cn3ncc(C(=O)Nc4cc(NC(=O)CN5CCCC6(CC6)C5)cnc4C)c3s2)cn1", "PDGFRβ (Rattus norvegicus (Rat), UniProt Q05030)", 8.46],
  ["Cc1ncc(NC(=O)CN2CCOCC23CC3)cc1NC(=O)c1cnn2cc(-c3cnn(C)c3)sc12", "PDGFRβ (Rattus norvegicus (Rat), UniProt Q05030)", 7.43],
  ["CNC(=O)c1cc(-c2cn3ncc(C(=O)Nc4cc(NC(=O)CN5CC(C)(C)C5)cnc4C)c3s2)ccn1", "PDGFRβ (Rattus norvegicus (Rat), UniProt Q05030)", 7.29],
  ["Cc1ncc(NC(=O)C2CCN(C(C)C)C2)cc1NC(=O)c1cnn2cc(-c3cnn4c3OCCC4)sc12 (centres unmarked)", "PDGFRβ (Rattus norvegicus (Rat), UniProt Q05030)", 7.13],
  ["COCCn1cc(-c2cn3ncc(C(=O)Nc4cc(NC(=O)C(C)(C)CN5CCCC5(C)C)cnc4C)c3s2)cn1", "PDGFRβ (Rattus norvegicus (Rat), UniProt Q05030)", 6.43],
  ["Cc1ncc(NC(=O)CC2CN(C)C2)cc1NC(=O)c1cnn2cc(-c3cnn4c3CCC4)sc12 [Example 468]", "PDGFRβ (Rattus norvegicus (Rat), UniProt Q05030)", 5.70],
  ["Cc1ncc(NC(=O)CN2CCCC2(C)C)cc1NC(=O)c1cnn2cc(-c3cnn(C(C)(C)CO)c3)sc12", "PDGFRβ (Rattus norvegicus (Rat), UniProt Q05030)", 8.40],
  ["Cc1ncc(C(=O)NCCN2CCCC23CCC3)cc1NC(=O)c1cnn2cc(-c3cn(C)nc3C)sc12", "PDGFRβ (Rattus norvegicus (Rat), UniProt Q05030)", 8.62],
  ["Cc1ncc(NC(=O)CN2CCC3(CCCO3)C2)cc1NC(=O)c1cnn2cc(-c3cnn(C)c3)sc12 (centres unmarked)", "PDGFRβ (Rattus norvegicus (Rat), UniProt Q05030)", 7.96],
  ["Cc1ncc(NC(=O)CN2CC(C)(C)C2)cc1NC(=O)c1cnn2cc(-c3cnn(C4CCNCC4)c3)sc12", "PDGFRβ (Rattus norvegicus (Rat), UniProt Q05030)", 6.47],
  ["Cc1ncc(C(=O)NCCN2CC3COCC3C2)cc1NC(=O)c1cnn2cc(-c3cnn(C)c3)sc12 (centres unmarked)", "PDGFRβ (Rattus norvegicus (Rat), UniProt Q05030)", 6.80],
  ["Cc1ncc(C(=O)NCCN2CCC3(CCC3)C2)cc1NC(=O)c1cnn2cc(-c3cnn(C)c3)sc12", "PDGFRβ (Rattus norvegicus (Rat), UniProt Q05030)", 7.94],
  ["COc1ncccc1-c1cn2ncc(C(=O)Nc3cc(NC(=O)CN4CCC5(CCOC5)C4)cnc3C)c2s1 (centres unmarked)", "PDGFRβ (Rattus norvegicus (Rat), UniProt Q05030)", 8.80],
  ["COCCN(CCNC(=O)c1cnc(C)c(NC(=O)c2cnn3cc(-c4cnn(C)c4)sc23)c1)C1CCC1", "PDGFRβ (Rattus norvegicus (Rat), UniProt Q05030)", 7.88],
  ["Cc1ncc(NC(=O)[C@@H]2CCCN3CCCC[C@H]23)cc1NC(=O)c1cnn2cc(-c3cnn(C)c3)sc12", "PDGFRβ (Rattus norvegicus (Rat), UniProt Q05030)", 6.51],
  ["Cc1cc(C(=O)NCCN2CCCC2(C)C)sc1NC(=O)c1cnn2cc(-c3cnn(C)n3)sc12", "PDGFRβ (Rattus norvegicus (Rat), UniProt Q05030)", 6.23],
  ["Cc1ncc(C(=O)NCCN2CCCC23COC3)cc1NC(=O)c1cnn2cc(-c3c(C)nn(C)c3C)sc12", "PDGFRβ (Rattus norvegicus (Rat), UniProt Q05030)", 7.26],
  ["COCCn1cc(-c2cn3ncc(C(=O)Nc4cc(C(=O)NCCN5CCC(F)(F)CC5)cnc4C)c3s2)cn1", "PDGFRβ (Rattus norvegicus (Rat), UniProt Q05030)", 7.94],
  ["Cc1ncc(C(=O)NCCN2CC3CCC2C3)cc1NC(=O)c1cnn2cc(-c3cnn(C)c3C)sc12 (centres unmarked)", "PDGFRβ (Rattus norvegicus (Rat), UniProt Q05030)", 7.05],
  ["COCCn1cc(-c2cn3ncc(C(=O)Nc4cc(NC(=O)C5(CN6CCC[C@@H]6C)CC5)cnc4C)c3s2)cn1", "PDGFRβ (Rattus norvegicus (Rat), UniProt Q05030)", 7.04],
  ["COCCn1cc(-c2cn3ncc(C(=O)Nc4cc(NC(=O)CN5CCC(C)(C)C5)cnc4C)c3s2)cn1", "PDGFRβ (Rattus norvegicus (Rat), UniProt Q05030)", 8.51]
]}
